Give measured abundance fitness for each item. Keep answers brief.
B1: Lysine-specific demethylase 2B, residues 656 to 722; numbered along this chain, Q8NHM5 (parent)
chain: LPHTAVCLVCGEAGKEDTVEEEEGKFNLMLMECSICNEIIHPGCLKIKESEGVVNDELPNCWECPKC

- Variants of: B1
- assay: abundance fitness (aPCA) (normalised: wild type 0, dead -1); higher = more abundant; growth selection in yeast, the domain comes from the species named
- conditions_used: Homo sapiens
Answers are plain numbers.

// below: answered variants
- record_sequence: "LPHTAVCLVCGECGKEDTVEEEEGKFNLMLMECSICNEIIHPGCLKIKESEGVVNDELPNCWECPKC [A13C]"
  abundance fitness: -0.297
- record_sequence: "LPHTAVCLVCGEAGKEDTVEEEEGKFNLMLMECSICNEIIHPGCLKIKESEGVVNDELPNCWEQPKC [C64Q]"
  abundance fitness: -0.662
- record_sequence: "LPHTAVCLVCGEAGKEDTVEEEEGKFNLMLMECSICNEIWHPGCLKIKESEGVVNDELPNCWECPKC [I40W]"
  abundance fitness: -0.473
- record_sequence: "LPHTAVCLVCGEAGKEDTVEEEEGKFNLMLMECSICNEIIHPGCLKIKESEGVVNDELPNCMECPKC [W62M]"
  abundance fitness: -0.425
- record_sequence: "LPHTAVCLVCGEAGKEDTVEEEEGKFNLMLMECSICNEIIHEGCLKIKESEGVVNDELPNCWECPKC [P42E]"
  abundance fitness: -0.537
- record_sequence: "LPHTAVCLVCGEAGKEDTVEWEEGKFNLMLMECSICNEIIHPGCLKIKESEGVVNDELPNCWECPKC [E21W]"
  abundance fitness: -0.354
- record_sequence: "LPHTMVCLVCGEAGKEDTVEEEEGKFNLMLMECSICNEIIHPGCLKIKESEGVVNDELPNCWECPKC [A5M]"
  abundance fitness: 0.195
- record_sequence: "LPHTAVCLVCGEAGKEDTFEEEEGKFNLMLMECSICNEIIHPGCLKIKESEGVVNDELPNCWECPKC [V19F]"
  abundance fitness: 0.151

For every listed record, write down its abundance fitness.
1. LPHTAVCLVCGEAGKEDTVEEEEGKFNLMLMECSIDNEIIHPGCLKIKESEGVVNDELPNCWECPKC [C36D]
2. LPHTAVCLVCGEAGKEDTVEEEEGKFNLMLMECSICNEIIHPGCLKIKESEGVVNDELPNCGECPKC [W62G]
3. LPHTAVCLVCGEAGKEDFVEEEEGKFNLMLMECSICNEIIHPGCLKIKESEGVVNDELPNCWECPKC [T18F]
4. LPHTAVCLVCGEAGKEDTVEEEEGKFNLMLMECSICNEIIHPGCLKIKESEGVVNDELPNCSECPKC [W62S]
5. LPHTAVCLVCGEAGKEDTVEEEEGKFNLMLMECSICNEIIHPGCLKIKESEGVQNDELPNCWECPKC [V54Q]

[-0.549, -0.789, -0.113, -0.551, 0.135]

For every listed record, write down its abundance fitness.
1. LPHTAVCLVCGEAGKEDTVEEEEGKFNHMLMECSICNEIIHPGCLKIKESEGVVNDELPNCWECPKC [L28H]
2. LPHTAVCLVCGEAGKEDTVEEEEGKFNLMKMECSICNEIIHPGCLKIKESEGVVNDELPNCWECPKC [L30K]
3. LPHTAVCLVCGEAGKEDPVEEEEGKFNLMLMECSICNEIIHPGCLKIKESEGVVNDELPNCWECPKC [T18P]
4. LPHTAVCLVCGEAGKEDTVEEEEGKFNAMLMECSICNEIIHPGCLKIKESEGVVNDELPNCWECPKC [L28A]
5. LPHTAVCLVCGEAGKEDTVEEEEGKFNLMLMECSICNEIIHPGCLKIKESEGVVNDELPNCWECEKC [P65E]
6. LPHTAGCLVCGEAGKEDTVEEEEGKFNLMLMECSICNEIIHPGCLKIKESEGVVNDELPNCWECPKC [V6G]

1: 0.118; 2: -0.034; 3: -0.268; 4: 0.124; 5: -0.148; 6: -0.64

Hello, the source for this data is the Human Domainome abundance scans (Beltran et al. 2025), in case you need it.
